Test: protein stability index of a GFP-peptide fusion (GPS, HEK-293T) (PSI 1-6); higher = more stable;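 also: 24-mer peptide tiles fused after GFP, lentivirally expressed, FACS-sorted into six equal bins by GFP/DsRed ratio, decoded by Illumina sequencing, PSI is the read-weighted mean bin number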
Conditions: treatment: MLN4924 1 uM, 8 h; c terminus: native
Tick true if protein stability index is 3 or greater. Tick false if protein stability index is less than 3.

Field: example entries. Status: answers known.
sequence_text	class_label
EENELTSLAEDLLGLTDPNGGLA [TRADD]	true
RLFQQSCPTGLVFSNSCKCCTWN [CHIT1]	false

Then this sequence:
Ask: Has IPRENAQISLDGDVTFFGALKLL [TNFSF13B] a recorded protein stability index greater than or equal to 3?
Reply: false

====

Test: protein stability index of a GFP-peptide fusion (GPS, HEK-293T) (PSI 1-6); higher = more stable
Conditions: treatment: MLN4924 1 uM, 8 h; c terminus: a fixed tail appended
quantity_kind: protein stability index
Just the number.

sequence_text	test_result
ARQLQLSDPQTVAGAFGYFQQDTK [LPCAT4]	3.9
MGSGTSTQHHFAFQNAERAFKAAA [PPEF2]	2.98
TLRDHFKGISSHSRSSLMPLRNDV [SLC2A12]	3.03
SRMKERAIDLNKKGKDNKHPMYRR [ZMYND11]	4.08
EMRISESAASGARFPLDSAQDPDV [PCDHGC5]	5.35

Ask: Output protein stability index of KEDTLLLIAEVMGEDIPEKIKDEV [C8orf76]
Reply: 4.22
